- Tested on: 521955-158-R2-J5-PDC complex spheroid growth
- Test protocol: Anticancer human tumor 521955-158-R2-J5-PDC patient-derived pancreatic carcinoma cell line growth inhibition [AhR]
- Run conditions: curve of first compound; second compound 0.1 µM
pIC50: −log10 of the molar value.
Decision: pIC50 >= 8 yields criterion met, all other cases yield criterion not met.

[[record]]
molecule = "CCN(c1cc(-c2ccc(CN3CCOCC3)cc2)cc(C(=O)NCc2c(C)cc(C)[nH]c2=O)c1C)C1CCOCC1 + Cc1ccccc1N=Nc1ccc(NC(=O)c2ccnn2C)c(C)c1"
assigned_category = "criterion not met"

[[record]]
molecule = "CCc1c2c(nc3ccc(O)cc13)-c1cc3c(c(=O)n1C2)COC(=O)[C@]3(O)CC + Cc1ccccc1N=Nc1ccc(NC(=O)c2ccnn2C)c(C)c1"
assigned_category = "criterion met"

[[record]]
molecule = "O=C(c1cc(Cc2n[nH]c(=O)c3ccccc23)ccc1F)N1CCN(C(=O)C2CC2)CC1 + Cc1cncc(-c2nc(NCCc3c[nH]c4ccccc34)c3ncn(C(C)C)c3n2)c1"
assigned_category = "criterion not met"

[[record]]
molecule = "NS(=O)(=O)OCC1CC(n2ccc3c(NC4CCc5ccccc54)ncnc32)CC1O (configuration not stated) + Cc1cncc(-c2nc(NCCc3c[nH]c4ccccc34)c3ncn(C(C)C)c3n2)c1"
assigned_category = "criterion not met"

[[record]]
molecule = "O=C(c1cc(Cc2n[nH]c(=O)c3ccccc23)ccc1F)N1CCN(C(=O)C2CC2)CC1 + CC(CO)NC(=O)c1cc(-c2ccc(Cl)cc2)nn(-c2cnn(C)c2)c1=O"
assigned_category = "criterion not met"

[[record]]
molecule = "CC[C@@]1(O)C(=O)OCc2c1cc1n(c2=O)Cc2cc3c(CN(C)C)c(O)ccc3nc2-1 + Cc1cncc(-c2nc(NCCc3c[nH]c4ccccc34)c3ncn(C(C)C)c3n2)c1"
assigned_category = "criterion not met"

[[record]]
molecule = "COc1cc(Nc2ncc3c(n2)-c2ccc(Cl)cc2C(c2c(F)cccc2OC)=NC3)ccc1C(=O)O + Cc1cncc(-c2nc(NCCc3c[nH]c4ccccc34)c3ncn(C(C)C)c3n2)c1"
assigned_category = "criterion not met"

[[record]]
molecule = "CCc1c2c(nc3ccc(O)cc13)-c1cc3c(c(=O)n1C2)COC(=O)[C@]3(O)CC + CC(CO)NC(=O)c1cc(-c2ccc(Cl)cc2)nn(-c2cnn(C)c2)c1=O"
assigned_category = "criterion met"

[[record]]
molecule = "CCN(c1cc(-c2ccc(CN3CCOCC3)cc2)cc(C(=O)NCc2c(C)cc(C)[nH]c2=O)c1C)C1CCOCC1 + Cc1cncc(-c2nc(NCCc3c[nH]c4ccccc34)c3ncn(C(C)C)c3n2)c1"
assigned_category = "criterion not met"

[[record]]
molecule = "O=C(C=Cc1cccc(S(=O)(=O)Nc2ccccc2)c1)NO + Cc1ccccc1N=Nc1ccc(NC(=O)c2ccnn2C)c(C)c1"
assigned_category = "criterion not met"


----------
- System: 521955-158-R2-J5-PDC complex spheroid growth
- Test protocol: Anticancer human tumor 521955-158-R2-J5-PDC cell line growth inhibition [AhR]
- Run conditions: curve of first compound; second compound 10 µM
Property: IC50 (nM)

[[record]]
compound = "NS(=O)(=O)OCC1CC(n2ccc3c(NC4CCc5ccccc54)ncnc32)CC1O (stereo not drawn) + Cc1cncc(-c2nc(NCCc3c[nH]c4ccccc34)c3ncn(C(C)C)c3n2)c1"
property = "IC50"
readout_unit = "nM"
result_operator = "="
quantitative_result = 68.3

[[record]]
compound = "Nc1ncn(C2CC(O)C(CO)S2)c(=O)n1 (stereo not drawn) + CC(CO)NC(=O)c1cc(-c2ccc(Cl)cc2)nn(-c2cnn(C)c2)c1=O"
property = "IC50"
readout_unit = "nM"
result_operator = ">"
quantitative_result = 300

[[record]]
compound = "CC1(C)CCC(CN2CCN(c3ccc(C(=O)NS(=O)(=O)c4ccc(NCC5CCOCC5)c([N+](=O)[O-])c4)c(Oc4cnc5[nH]ccc5c4)c3)CC2)=C(c2ccc(Cl)cc2)C1 + CC(CO)NC(=O)c1cc(-c2ccc(Cl)cc2)nn(-c2cnn(C)c2)c1=O"
property = "IC50"
readout_unit = "nM"
result_operator = ">"
quantitative_result = 10000

[[record]]
compound = "COc1cc(Nc2ncc3c(n2)-c2ccc(Cl)cc2C(c2c(F)cccc2OC)=NC3)ccc1C(=O)O + Cc1ccccc1N=Nc1ccc(NC(=O)c2ccnn2C)c(C)c1"
property = "IC50"
readout_unit = "nM"
result_operator = ">"
quantitative_result = 10000

[[record]]
compound = "O=C(C=Cn1cnc(-c2cc(C(F)(F)F)cc(C(F)(F)F)c2)n1)NNc1cnccn1 + Cc1ccccc1N=Nc1ccc(NC(=O)c2ccnn2C)c(C)c1"
property = "IC50"
readout_unit = "nM"
result_operator = "="
quantitative_result = 140

[[record]]
compound = "COc1ccc([C@@H](O)c2cc(-c3ncnc4cc(N5CCOCC5)ccc34)c(F)cc2Cl)nn1 + CC(CO)NC(=O)c1cc(-c2ccc(Cl)cc2)nn(-c2cnn(C)c2)c1=O"
property = "IC50"
readout_unit = "nM"
result_operator = "="
quantitative_result = 1900

[[record]]
compound = "Nc1ccn(C2OC(CO)C(O)C2(F)F)c(=O)n1 (stereo not drawn) + Cc1cncc(-c2nc(NCCc3c[nH]c4ccccc34)c3ncn(C(C)C)c3n2)c1"
property = "IC50"
readout_unit = "nM"
result_operator = "="
quantitative_result = 604

[[record]]
compound = "COc1cc(C2c3cc4c(cc3C(OC3OC5COC(C)OC5C(O)C3O)C3COC(=O)C23)OCO4)cc(OC)c1O (stereo not drawn) + Cc1cncc(-c2nc(NCCc3c[nH]c4ccccc34)c3ncn(C(C)C)c3n2)c1"
property = "IC50"
readout_unit = "nM"
result_operator = "="
quantitative_result = 1810

[[record]]
compound = "CC1COCCN1c1cc(-c2ccnn2C)c2ccnc(-c3ccn[nH]3)c2n1 (stereo not drawn) + CC(CO)NC(=O)c1cc(-c2ccc(Cl)cc2)nn(-c2cnn(C)c2)c1=O"
property = "IC50"
readout_unit = "nM"
result_operator = "="
quantitative_result = 37.8

[[record]]
compound = "Nc1ccn(C2OC(CO)C(O)C2(F)F)c(=O)n1 (stereo not drawn) + CC(CO)NC(=O)c1cc(-c2ccc(Cl)cc2)nn(-c2cnn(C)c2)c1=O"
property = "IC50"
readout_unit = "nM"
result_operator = "="
quantitative_result = 101

[[record]]
compound = "CCc1c2c(nc3ccc(O)cc13)-c1cc3c(c(=O)n1C2)COC(=O)[C@]3(O)CC + Cc1cncc(-c2nc(NCCc3c[nH]c4ccccc34)c3ncn(C(C)C)c3n2)c1"
property = "IC50"
readout_unit = "nM"
result_operator = "="
quantitative_result = 3

[[record]]
compound = "COc1cc(Nc2ncc3c(n2)-c2ccc(Cl)cc2C(c2c(F)cccc2OC)=NC3)ccc1C(=O)O + Cc1cncc(-c2nc(NCCc3c[nH]c4ccccc34)c3ncn(C(C)C)c3n2)c1"
property = "IC50"
readout_unit = "nM"
result_operator = ">"
quantitative_result = 10000

[[record]]
compound = "CC1COCCN1c1cc(C2(S(C)(=N)=O)CC2)nc(-c2ccnc3[nH]ccc23)n1 (stereo not drawn) + Cc1ccccc1N=Nc1ccc(NC(=O)c2ccnn2C)c(C)c1"
property = "IC50"
readout_unit = "nM"
result_operator = "="
quantitative_result = 2550

[[record]]
compound = "O=C(C=Cn1cnc(-c2cc(C(F)(F)F)cc(C(F)(F)F)c2)n1)NNc1cnccn1 + Cc1cncc(-c2nc(NCCc3c[nH]c4ccccc34)c3ncn(C(C)C)c3n2)c1"
property = "IC50"
readout_unit = "nM"
result_operator = "<"
quantitative_result = 9.49

[[record]]
compound = "COc1cc(C2c3cc4c(cc3C(OC3OC5COC(C)OC5C(O)C3O)C3COC(=O)C23)OCO4)cc(OC)c1O (stereo not drawn) + CC(CO)NC(=O)c1cc(-c2ccc(Cl)cc2)nn(-c2cnn(C)c2)c1=O"
property = "IC50"
readout_unit = "nM"
result_operator = "="
quantitative_result = 422

[[record]]
compound = "O=C(C=Cn1cnc(-c2cc(C(F)(F)F)cc(C(F)(F)F)c2)n1)NNc1cnccn1 + CC(CO)NC(=O)c1cc(-c2ccc(Cl)cc2)nn(-c2cnn(C)c2)c1=O"
property = "IC50"
readout_unit = "nM"
result_operator = "="
quantitative_result = 12.5

[[record]]
compound = "Nc1ncn(C2CC(O)C(CO)S2)c(=O)n1 (stereo not drawn) + Cc1ccccc1N=Nc1ccc(NC(=O)c2ccnn2C)c(C)c1"
property = "IC50"
readout_unit = "nM"
result_operator = ">"
quantitative_result = 300

[[record]]
compound = "CC(C)c1c(-c2ccccc2)nc2c(C#N)c[nH]n2c1=O + Cc1cncc(-c2nc(NCCc3c[nH]c4ccccc34)c3ncn(C(C)C)c3n2)c1"
property = "IC50"
readout_unit = "nM"
result_operator = ">"
quantitative_result = 10000

[[record]]
compound = "Nc1ccccc1NC(=O)c1ccc(CNC(=O)OCc2cccnc2)cc1 + CC(CO)NC(=O)c1cc(-c2ccc(Cl)cc2)nn(-c2cnn(C)c2)c1=O"
property = "IC50"
readout_unit = "nM"
result_operator = "="
quantitative_result = 3360

[[record]]
compound = "CCc1c2c(nc3ccc(O)cc13)-c1cc3c(c(=O)n1C2)COC(=O)[C@]3(O)CC + CC(CO)NC(=O)c1cc(-c2ccc(Cl)cc2)nn(-c2cnn(C)c2)c1=O"
property = "IC50"
readout_unit = "nM"
result_operator = "<"
quantitative_result = 0.949

[[record]]
compound = "COc1cccc2c1C(=O)c1c(O)c3c(c(O)c1C2=O)CC(O)(C(=O)CO)CC3OC1CC(N)C(O)C(C)O1 (stereo not drawn) + CC(CO)NC(=O)c1cc(-c2ccc(Cl)cc2)nn(-c2cnn(C)c2)c1=O"
property = "IC50"
readout_unit = "nM"
result_operator = "="
quantitative_result = 38.7

[[record]]
compound = "O=C(C=Cc1cccc(S(=O)(=O)Nc2ccccc2)c1)NO + Cc1cncc(-c2nc(NCCc3c[nH]c4ccccc34)c3ncn(C(C)C)c3n2)c1"
property = "IC50"
readout_unit = "nM"
result_operator = "="
quantitative_result = 1730

[[record]]
compound = "COc1cccc2c1C(=O)c1c(O)c3c(c(O)c1C2=O)CC(O)(C(=O)CO)CC3OC1CC(N)C(O)C(C)O1 (stereo not drawn) + Cc1ccccc1N=Nc1ccc(NC(=O)c2ccnn2C)c(C)c1"
property = "IC50"
readout_unit = "nM"
result_operator = "="
quantitative_result = 165

